STUDY SYSTEM: LTC4S (Homo sapiens (Human), UniProt Q16873)
EXPERIMENT SUMMARY: Human LTC4S enzymatic assay (HTRF detection of LTC4-Me)
Type: biochemical
CONDITIONS USED: 0.75 nM enzyme, 400 μM GSH, 5 μM LTA4-Me, 15 min pre-incubation; read-out: human LTC4S IC50 (enzymatic assay)
pIC50: −log10 of the molar value.
Each record here notes measured pIC50.
RECORDED ENDPOINT: pIC50

* O=C1CCCC2(CCN(c3ccn4nc(C(F)(F)F)cc4n3)CC2)N1c1ccc(Cl)c(F)c1 | 8.30
* O=C1CCCC2(CCN(c3nnn(-c4ccccc4)n3)CC2)N1c1ccc(Cl)c(F)c1 | 7.96
* O=C1CCCC2(CCN(c3ncn(-c4ccc(F)cc4)n3)CC2)N1c1ccc(Cl)c(F)c1 | 8.22
* O=C1CCCC2(CCN(c3ncc(-c4ccc(F)cc4)o3)CC2)N1c1ccc(Cl)c(F)c1 | 8.40
* O=C1CCCC2(CCN(c3ccn(-c4ccc(F)cc4)n3)CC2)N1c1ccc(Cl)c(F)c1 | 7.89
* O=C1CCCC2(CCN(c3ncc4ccc(C(F)(F)F)cc4n3)CC2)N1c1ccc(Cl)c(F)c1 | 8.15
* O=C1CCCC2(CCN(c3nnc(-c4ccccc4)o3)CC2)N1c1ccc(Cl)c(F)c1 | 6.96
* O=C1CCCC2(CCN(c3nsc(N4CCCC4)n3)CC2)N1c1ccc(Cl)c(F)c1 | 7.21
* O=C1CCCC2(CCN(c3nncc(C4CCCC4)n3)CC2)N1c1ccc(Cl)c(F)c1 | 7.92
* O=C1CCCC2(CCN(c3cc(OCC(F)(F)F)ccn3)CC2)N1c1ccc(Cl)c(F)c1 | 7.89
* O=C1CCCC2(CCN(c3nc4ccc(C(F)(F)F)cc4o3)CC2)N1c1ccc(Cl)c(F)c1 | 7.44
* O=C1CCCC2(CCN(c3ncnc(N4CCCC4)n3)CC2)N1c1ccc(Cl)c(F)c1 | 8.10

###

STUDY SYSTEM: LTC4S (Homo sapiens (Human))
EXPERIMENT SUMMARY: Human LTC4S enzymatic assay (HTRF detection of LTC4-Me)
Type: biochemical
RECORDED ENDPOINT: IC50

* O=C1CCCC2(CCN(c3nccc(N4CC5(CC5)C4)n3)CC2)N1c1ccc(Cl)c(F)c1 [Example 35b] | 3 nM
* O=C1CCCC2(CCN(c3ccnc(N4CC5(CC5)C4)n3)CC2)N1c1ccc(Cl)c(F)c1 [Example 35a] | 12 nM
* O=C1CCCC2(CCN(c3cn(-c4ccc(F)cc4)nn3)CC2)N1c1ccc(Cl)c(F)c1 | 57 nM

###

STUDY SYSTEM: LTC4S (Homo sapiens (Human), UniProt Q16873)
EXPERIMENT SUMMARY: Human whole blood HTRF assay (LTC4 release after calcium ionophore A23187)
Format: cell-based
CONDITIONS USED: human whole blood HTRF IC50, human whole blood diluted 1:3, 4 h incubation, calcium ionophore A23187 stimulation, LTC4 by HTRF
pIC50: −log10 of the molar value.
Would you please tag the item Condition met when its pIC50 is 8 or above, and Condition not met when it is below?

- O=C1CCCC2(CCN(c3cn(-c4ccc(F)cc4)nn3)CC2)N1c1ccc(Cl)c(F)c1 [Example 29]: Condition not met
- O=C1CC(F)CC2(CCN(c3cc(OCC(F)(F)F)ncn3)CC2)N1c1ccc(F)c(F)c1 (centres unmarked) [Example 119]: Condition not met
- O=C1CCCC2(CCN(c3ccnc(N4CC5(CC5)C4)n3)CC2)N1c1ccc(Cl)c(F)c1 [Example 35a]: Condition not met
- O=C1CCCC2(CCN(c3cc(OC4CCOCC4)nn(Cc4ccccc4)c3=O)CC2)N1c1ccc(F)c(F)c1 [Example 15a]: Condition met
- Cn1nc(-n2cc(C(F)(F)F)cn2)cc(N2CCC3(CCCC(=O)N3c3ccc(F)c(F)c3)CC2)c1=O [Example 14]: Condition met
- O=C1CCCC2(CCN(c3cc(=O)n(Cc4ccccc4)nc3OC3CCOCC3)CC2)N1c1ccc(F)c(F)c1 [Example 15b]: Condition not met

###

STUDY SYSTEM: LTC4S (Homo sapiens (Human), UniProt Q16873)
EXPERIMENT SUMMARY: Human whole blood HTRF assay (LTC4 release after calcium ionophore A23187)
Type: cell-based
CONDITIONS USED: human whole blood diluted 1:3, 4 h incubation, calcium ionophore A23187 stimulation, LTC4 by HTRF; read-out: human whole blood HTRF IC50
pIC50: −log10 of the molar value.
Quick rule for you: pIC50 at 7 or higher means condition met, lower means condition not met.

- Nc1nc(OC2CCOCC2)cc(N2CCC3(CC2)C[C@H](F)CC(=O)N3c2ccc(F)c(F)c2)n1 (single isomer, unassigned) [Example 116a]: condition met
- O=C1CCCC2(CCN(c3nnn(-c4ccccc4)n3)CC2)N1c1ccc(Cl)c(F)c1: condition not met
- O=C1OCCC2(CCN(c3cc(-n4cc(C(F)(F)F)cn4)nc(CO)n3)CC2)N1c1ccc(F)c(F)c1: condition met
- CC(C)(O)c1nc(N2CCC3(CCCC(=O)N3c3ccc(F)c(F)c3)CC2)cc(C(F)(F)F)n1: condition met
- Nc1nc(N2CCC3(CCCC(=O)N3c3ccc(F)c(F)c3)CC2)cc(-n2cc(C(F)(F)F)cn2)n1: condition met
- Cc1nc(N2CCC3(CCCC(=O)N3c3ccc(F)c(F)c3)CC2)cc(-n2cccn2)n1: condition met

###

# IC50 values compiled below
STUDY SYSTEM: LTC4S (Homo sapiens (Human))
EXPERIMENT SUMMARY: Human whole blood HTRF assay (LTC4 release after calcium ionophore A23187)
Type: cell-based
CONDITIONS USED: human whole blood diluted 1:3, 4 h incubation, calcium ionophore A23187 stimulation, LTC4 by HTRF; read-out: human whole blood HTRF IC50
RECORDED ENDPOINT: IC50 (nM)

* Cn1cc(C2=CCC(F)(F)CC2)nc(N2CCC3(CCCC(=O)N3c3ccc(F)c(F)c3)CC2)c1=O | 3
* CC(Oc1cc(N2CCC3(CCCC(=O)N3c3ccc(F)c(F)c3)CC2)ncn1)C(F)(F)F (racemic) | 2
* CC(F)(F)c1cc(N2CCC3(CCCC(=O)N3c3ccc(F)c(F)c3)CC2)nc(N)n1 | 32
* Nc1cc(N2CCC3(CCCC(=O)N3c3ccc(F)c(F)c3)CC2)nc(-c2ccccn2)n1 | 430
* O=C1CCCC2(CCN(c3cc(N4CC5(CCC5)C4)nn(Cc4ccccc4)c3=O)CC2)N1c1ccc(F)c(F)c1 | 5
* COc1nc(N2CCC3(CCCC(=O)N3c3ccc(F)c(F)c3)CC2)cc(-n2cccn2)n1 | 45
* Nc1nc(OC2COCC2(F)F)cc(N2CCC3(CCCC(=O)N3c3ccc(F)c(F)c3)CC2)n1 (racemic) | 3
* O=C1CCCC2(CCN(c3noc(C45CC(C(F)(F)F)(C4)C5)n3)CC2)N1c1ccc(Cl)c(F)c1 | 100
* Nc1nc(N2CCC3(CCCC(=O)N3c3ccc(F)c(F)c3)CC2)cc(C(F)(F)C(F)(F)F)n1 | 31
* Nc1nc(OC2CCOCC2)cc(N2CCC3(CCCC(=O)N3c3ccc(F)c(F)c3)CC2)n1 | 5
* O=C1CCCC2(CCN(c3cc(-n4cnc(C(F)(F)F)c4)ncn3)CC2)N1c1ccc(F)c(F)c1 | 560
* O=C1CCCC2(CCN(c3cc(-n4ccc(C(F)(F)F)n4)ncn3)CC2)N1c1ccc(F)c(F)c1 | 850
* Nc1nc(N2CCC3(CCCC(=O)N3c3ccc(F)c(F)c3)CC2)cc(N2C[C@H]3C[C@@H]2CO3)n1 (racemic) | 490
* Nc1nc(N2CCC3(CCOC(=O)N3c3ccc(F)c(F)c3)CC2)cc(-n2cc(C(F)(F)F)cn2)n1 | 28
* Nc1nc(N2CCC3(CCCC(=O)N3c3ccc(F)c(F)c3)CC2)cc(C(F)(F)C(F)F)n1 | 24

###

STUDY SYSTEM: UniProt:Q16873
EXPERIMENT SUMMARY: Human whole blood HTRF assay (LTC4 release after calcium ionophore A23187)
Type: cell-based
CONDITIONS USED: human whole blood diluted 1:3, 4 h incubation, calcium ionophore A23187 stimulation, LTC4 by HTRF; read-out: human whole blood HTRF IC50
Param label: returns 1 when IC50 < 9 nM, returns 0 otherwise, including exact equality.

* O=C1CCCC2(CCN(c3cc(OC4CCOCC4)ncn3)CC2)N1c1ccc(F)c(F)c1 | 1
* CC1(Oc2cc(N3CCC4(CCCC(=O)N4c4ccc(F)c(F)c4)CC3)nc(N)n2)CCOC1 (racemic) | 1
* O=C1CCCC2(CCN(c3nnc(-c4ccccc4)o3)CC2)N1c1ccc(Cl)c(F)c1 | 0
* O=C1CCCC2(CCN(c3cc(O[C@@H]4CCOC[C@@H]4F)nc(CO)n3)CC2)N1c1ccc(F)c(F)c1 (racemic) | 1
* Nc1nc(N[C@@H]2CCOC2)cc(N2CCC3(CCCC(=O)N3c3ccc(F)c(F)c3)CC2)n1 | 0
* Nc1nc(O[C@@H]2CCCOC2)cc(N2CCC3(CCCC(=O)N3c3ccc(F)c(F)c3)CC2)n1 | 1
